Where do the numbers come from? From ChEMBL document CHEMBL1141613.

- assay.text: LDL oxidation at 5 uM by ELISA
experimental.readout: level, % of control (%)
Response body: numeric value in %, unit text excluded.

Examples with their reported level, % of control follow.
CC(=O)Nc1ccc(C(=O)O)c(Nc2cccc(C(F)(F)F)c2)c1: 122
O=C(O)c1ccc([N+](=O)[O-])cc1Nc1cccc(C(F)(F)F)c1: 121
O=C(O)c1ccccc1Nc1cccc(C(F)(F)F)c1: 97

Next compound, please.
Suppose we examine the compound Nc1ccc(C(=O)O)c(Nc2cccc(C(F)(F)F)c2)c1 ; what level, % of control value has been reported?
79

---

- tested.target: UniProt P05164
- assay.text: Inhibition of chlorinating activity of recombinant myeloperoxidase at 1 uM by taurine assay
experimental.readout: inhibition

O=C(O)c1ccc([N+](=O)[O-])cc1Nc1cccc(C(F)(F)F)c1: 29%

Suppose we examine the molecule O=C(O)c1cc(Br)ccc1Nc1cccc(C(F)(F)F)c1 ; what inhibition value has been reported?
51%

Suppose we examine the molecule NCCCC(=O)Nc1ccc(C(=O)O)c(Nc2cccc(C(F)(F)F)c2)c1 ; what inhibition value has been reported?
21%

Suppose we examine the molecule O=C(O)/C=C/C(=O)Nc1ccc(C(=O)O)c(Nc2cccc(C(F)(F)F)c2)c1 ; what inhibition value has been reported?
0.6%

Suppose we examine the molecule O=C(O)c1cc(F)ccc1Nc1cccc(C(F)(F)F)c1 ; what inhibition value has been reported?
49%

Suppose we examine the molecule O=C(CCCO)Nc1ccc(C(=O)O)c(Nc2cccc(C(F)(F)F)c2)c1 ; what inhibition value has been reported?
12%

Suppose we examine the molecule O=C(O)c1ccccc1Nc1cccc(C(F)(F)F)c1 ; what inhibition value has been reported?
40%

Suppose we examine the molecule O=C(Nc1ccc(C(=O)O)c(Nc2cccc(C(F)(F)F)c2)c1)c1ccccc1 ; what inhibition value has been reported?
15%

Suppose we examine the molecule O=C(O)c1cc(Cl)ccc1Nc1cccc(C(F)(F)F)c1 ; what inhibition value has been reported?
42%

Suppose we examine the molecule CC(=O)Nc1ccc(C(=O)O)c(Nc2cccc(C(F)(F)F)c2)c1 ; what inhibition value has been reported?
24%

---

- tested.target: Myeloperoxidase (Homo sapiens)
- Sequence (P05164 whole entry): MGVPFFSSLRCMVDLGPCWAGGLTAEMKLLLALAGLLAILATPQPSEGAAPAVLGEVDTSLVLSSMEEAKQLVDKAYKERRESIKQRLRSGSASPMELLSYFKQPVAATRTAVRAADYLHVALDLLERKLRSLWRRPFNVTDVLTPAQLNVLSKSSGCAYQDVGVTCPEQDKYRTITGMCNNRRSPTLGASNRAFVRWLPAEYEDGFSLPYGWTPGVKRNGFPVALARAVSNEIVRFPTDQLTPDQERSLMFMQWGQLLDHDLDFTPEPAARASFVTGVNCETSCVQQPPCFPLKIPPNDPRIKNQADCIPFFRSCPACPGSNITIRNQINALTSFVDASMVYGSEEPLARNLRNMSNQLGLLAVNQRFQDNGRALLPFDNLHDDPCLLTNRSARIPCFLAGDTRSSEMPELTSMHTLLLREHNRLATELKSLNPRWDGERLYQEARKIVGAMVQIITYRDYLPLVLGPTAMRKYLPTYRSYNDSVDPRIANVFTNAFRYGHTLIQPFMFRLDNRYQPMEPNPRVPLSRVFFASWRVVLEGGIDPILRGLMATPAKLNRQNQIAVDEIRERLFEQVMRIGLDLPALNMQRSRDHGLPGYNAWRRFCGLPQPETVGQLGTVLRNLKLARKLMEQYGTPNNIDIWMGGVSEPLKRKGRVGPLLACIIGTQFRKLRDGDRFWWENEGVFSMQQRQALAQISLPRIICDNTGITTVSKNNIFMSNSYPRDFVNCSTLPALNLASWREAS
- assay.text: Inhibition of chlorinating activity of recombinant myeloperoxidase by taurine assay
- Format: single protein format
The entries below come with measured pIC50 values attached.
Schema: pIC50 number; meaning minus log10 of the concentration expressed in molar units.

O=C(O)c1cc(Br)ccc1Nc1cccc(C(F)(F)F)c1: 5.74
O=C(O)c1cc(Cl)ccc1Nc1cccc(C(F)(F)F)c1: 5.80
NCCCC(=O)Nc1ccc(C(=O)O)c(Nc2cccc(C(F)(F)F)c2)c1: 5.26

Suppose we examine the compound O=C(O)c1cc(F)ccc1Nc1cccc(C(F)(F)F)c1 ; what pIC50 value has been reported?
5.74

Suppose we examine the compound O=C(Nc1ccc(C(=O)O)c(Nc2cccc(C(F)(F)F)c2)c1)c1ccccc1 ; what pIC50 value has been reported?
4.24
